Task for the reader: assign each of the following binders its reported Phage binding ELISA signal, Anti-PSMA Fab.
molecular target: T1, PSMA Fab (biotinylated (site not stated)); test: phage ELISA, biotinylated anti-PSMA Fab on neutravidin plate, anti-M13 HRP detection
T1 construct: Biotinylated PSMA Fab captured on neutravidin coated plates in the phage ELISA; also called Anti-PSMA Fab; 006 PSMA Fab
Where no end group is shown, it is not given here.
Numbers only.

WEAMCQPLWMCTGF (cysteine pairing not given here; also: peptide displayed as fusion to phage pIII, Clonal phage of the peptide-180 optimisation library, tested as crude phage supernatant; not shown: bacteriophage pIII coat protein to which the peptide is fused for display) [Phage-2968] :: 2.26

Q. Requested field: Phage binding ELISA signal, Anti-PSMA Fab. Item: PGPLCVPEWMCIGF (cysteine pairing not given here; also: peptide displayed as fusion to phage pIII, Clonal phage of the peptide-180 optimisation library, tested as crude phage supernatant; not shown: bacteriophage pIII coat protein to which the peptide is fused for display) [Phage-2964]
A. 2.26
